# Test system: CCRIS mutagenicity, Ames/micronucleus/aberration tests
# protocol-text: CCRIS mutagenicity studies
# condition-description: Test System: AMES SALMONELLA TYPHIMURIUM; Strain/Indicator: TA100; Metabolic Activation: RAT, LIVER, S-9, AROCLOR 1254; Method: STANDARD PLATE
Active and inactive are the calls of the source. How the calls were made is not given here.
Reply using exactly one outcome from 1.0 for active, 0.0 for inactive

Check out these entries, answers already filled in.
{"molecule": "O=CC(O)C(O)C(O)CO (centres undefined)", "classification": 0.0}
{"molecule": "CN(C)CCCCl", "classification": 1.0}
{"molecule": "CCn1cc(C(=O)O)c(=O)c2cc(F)c(-c3ccncc3)c(F)c21", "classification": 0.0}

Input: For Nc1ccc(O)c([N+](=O)[O-])c1 , which call appears in the assay record?
Output: 0.0

Input: For CC(=O)O[C@H]1CC[C@@]2(C)C(=CC[C@H]3[C@@H]4CC[C@H]([C@H](C)CCCC(C)C)[C@@]4(C)CC[C@@H]32)C1 , which call appears in the assay record?
Output: 0.0

Input: For O[C@@H]1c2ccccc2-c2ccc3ccccc3c2[C@H]1O , which call appears in the assay record?
Output: 0.0

Input: For O=C1c2ccccc2CCc2ccccc21 , which call appears in the assay record?
Output: 0.0

Input: For CC[N+](CC)=c1ccc2nc3c(cc(N)c4ccccc43)oc-2c1 , which call appears in the assay record?
Output: 1.0

Input: For CN(C)CCCN1c2ccccc2Sc2ccc(Cl)cc21 , which call appears in the assay record?
Output: 0.0

Input: For CC(C)C1=CC2=CC[C@@H]3[C@](C)(CCC[C@@]3(C)C(=O)O)[C@H]2CC1 , which call appears in the assay record?
Output: 0.0

Input: For O=C(O)c1ccc(N=Nc2ccc(O)c(C(=O)O)c2)cc1 , which call appears in the assay record?
Output: 0.0

Input: For ClC(Cl)=C(Cl)c1ccc(Cl)c(Cl)c1Cl , which call appears in the assay record?
Output: 0.0

Input: For CCOC(=O)NNc1nncc2ccccc12 , which call appears in the assay record?
Output: 0.0

Input: For CN(C)C(=O)Oc1ccc[n+](C)c1 , which call appears in the assay record?
Output: 0.0

Input: For CCC1(c2ccccc2)C(=O)NC(=O)NC1=O , which call appears in the assay record?
Output: 0.0

Input: For Nc1cccc([N+](=O)[O-])c1O , which call appears in the assay record?
Output: 0.0

====

# Test system: CCRIS mutagenicity, Ames/micronucleus/aberration tests
# protocol-text: CCRIS mutagenicity studies
# condition-description: Test System: AMES SALMONELLA TYPHIMURIUM; Strain/Indicator: TA98; Metabolic Activation: S-9; Method: STANDARD PLATE
The source made the active and inactive calls. No rule for the calls is given here.
Reply using exactly one outcome from active, inactive

Check out these entries, answers already filled in.
{"compound": "Cc1snc2ccccc12", "tgt": "CCRIS mutagenicity, Ames/micronucleus/aberration tests", "classification": "inactive"}
{"compound": "Cc1cccc(OCC(O)CNC(C)(C)C)c1C (configuration not stated)", "tgt": "CCRIS mutagenicity, Ames/micronucleus/aberration tests", "classification": "inactive"}
{"compound": "CCC(C)(C)c1cc(-n2nc3ccccc3n2)c(O)c(C(C)(C)CC)c1", "tgt": "CCRIS mutagenicity, Ames/micronucleus/aberration tests", "classification": "inactive"}
{"compound": "CCc1cc(C(C)(C)C)c(O)c(C(C)(C)C)c1", "tgt": "CCRIS mutagenicity, Ames/micronucleus/aberration tests", "classification": "inactive"}
{"compound": "CCC1(c2ccccc2)C(=O)NC(=O)NC1=O", "tgt": "CCRIS mutagenicity, Ames/micronucleus/aberration tests", "classification": "inactive"}

Input: For CCOC(=O)C1(CCCCCCOCc2cccs2)CO1 (configuration not stated) , which call appears in the assay record?
Output: active

Input: For COC1(O[C@H]2CC[C@H]3[C@@H]4CC[C@H]5C[C@@H]6S[C@@H]6C[C@]5(C)[C@H]4CC[C@]23C)CCCC1 , which call appears in the assay record?
Output: inactive

Input: For O=[N+]([O-])c1ccc(/C=C/c2cccc(Cl)c2)cc1 , which call appears in the assay record?
Output: active

Input: For Cc1ccccc1-c1nc2ccccc2o1 , which call appears in the assay record?
Output: inactive

Input: For Nc1ccc(-c2ccc(N)cc2)cc1 , which call appears in the assay record?
Output: active

Input: For O=c1[nH]c(=O)n([C@H]2C[C@H](O)[C@@H](CO)O2)cc1Br , which call appears in the assay record?
Output: inactive

Input: For Clc1ccccc1-c1nc2ccccc2o1 , which call appears in the assay record?
Output: inactive

Input: For CC(=O)c1cc(O)c(C(C)C)c2cc(C)c(-c3c(C)cc4c(C(C)C)c(O)c(O)c(C=O)c4c3O)c(O)c12 , which call appears in the assay record?
Output: inactive

Input: For Nc1snc2ccc([N+](=O)[O-])cc12 , which call appears in the assay record?
Output: active

Input: For COc1ccc2cc(CCC(C)=O)ccc2c1 , which call appears in the assay record?
Output: inactive

Input: For COc1cccc(/C=C/c2ccc([N+](=O)[O-])cc2)c1 , which call appears in the assay record?
Output: active

Input: For O=Cc1ccccc1O , which call appears in the assay record?
Output: inactive

Input: For CNc1snc2ccccc12 , which call appears in the assay record?
Output: inactive

Input: For COc1cc(Oc2ccc(Cl)cc2Cl)ccc1[N+](=O)[O-] , which call appears in the assay record?
Output: inactive

Input: For Oc1cccc(O)c1O , which call appears in the assay record?
Output: active

Input: For Nc1ccc(/C=C/c2ccccc2)cc1 , which call appears in the assay record?
Output: active

Input: For CCCCCNc1snc2ccccc12 , which call appears in the assay record?
Output: inactive

Input: For ONc1ccc(-c2ccccc2)cc1 , which call appears in the assay record?
Output: active

Input: For c1ccccc1 , which call appears in the assay record?
Output: inactive
